Hello, the source for this data is ChEMBL document CHEMBL3352306, in case you need it.

Task for the reader: assign each of the following molecules its reported pIC50.
System: SiHa
Test: Antitumor activity against human SiHa cells assessed as inhibition of cell growth by MTT assay
Format: functional, cell-based
Keep it numeric: pIC50 is minus log10 of the concentration in mol/L.

Any idea what pIC50 came out for COc1cccc2c1C(=O)c1c(O)c3c(c(O)c1C2=O)C[C@@](O)(C(=O)CO)C[C@@H]3O[C@H]1C[C@H](N)[C@H](O)[C@H](C)O1 on SiHa?
5.69

So what pIC50 did COc1cc(/C=C/C(=O)NC23CC4CC(CC(C4)C2)C3)cc(Br)c1O get with SiHa?
4.08

API: value(readout=pIC50, system=SiHa) for record O=C(/C=C/c1ccc(O)c(O)c1)Oc1ccc2ccccc2c1
4.40

What pIC50 appears in the records for this molecule with SiHa? O=C(/C=C/c1ccc(O)c(O)c1)OC1CCCCC1
4.29
